Study target: Human immunodeficiency virus type 1 integrase (Human immunodeficiency virus 1, UniProt Q7ZJM1)
Sequence (Q7ZJM1 whole entry): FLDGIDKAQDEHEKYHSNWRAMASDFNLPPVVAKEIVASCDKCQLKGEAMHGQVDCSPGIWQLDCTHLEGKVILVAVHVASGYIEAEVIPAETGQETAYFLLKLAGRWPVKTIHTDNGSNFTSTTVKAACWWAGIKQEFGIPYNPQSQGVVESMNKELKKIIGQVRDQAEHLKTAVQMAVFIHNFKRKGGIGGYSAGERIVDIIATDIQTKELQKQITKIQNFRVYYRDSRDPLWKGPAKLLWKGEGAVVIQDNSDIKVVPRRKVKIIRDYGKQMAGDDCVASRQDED
Measurement description: Inhibitory concentration as 50% inhibition of HIV-1 integrase enzyme at strand transfer stage of DNA integration.
Listing of recorded IC50 by entry.
Your answer is read as µM, so omit the unit and give the number.

[[record]]
compound = "COc1ccc(C2C(Cl)C(=O)N2NC(=O)c2ccccc2O)cc1OC (stereo not drawn)"
unit_string = "µM"
result = 106

[[record]]
compound = "CC1=NN(C(=O)c2ccccc2O)C(=O)/C1=C/c1ccco1"
unit_string = "µM"
result = 2


Request: Can you share its IC50? I mean this compound: O=C(NN1C(=O)C(Cl)C1c1ccc(O)cc1)c1ccccc1O (stereo not drawn)
Result: 285

====

Study target: Human immunodeficiency virus type 1 integrase (Human immunodeficiency virus 1, UniProt Q7ZJM1)
Measurement description: Inhibitory concentration as 50% inhibition of HIV-1 integrase enzyme at strand transfer stage of DNA integration.
Measured IC50 by item

Known results for molecules:
[[record]]
molecule = "COc1cc(C2C(Cl)C(=O)N2NC(=O)c2ccccc2O)ccc1O (stereo unspecified)"
result = "262 µM"

[[record]]
molecule = "CC1=NN(C(=O)c2ccccc2O)C(=O)/C1=C/c1ccccc1O"
result = "2.8 µM"

[[record]]
molecule = "O=C(NNC(=O)c1ccc(Cl)c(Cl)c1)c1ccc(Cl)c(Cl)c1"
result = "> 100 µM"

[[record]]
molecule = "CC1=NN(C(=O)c2ccccc2O)C(=O)/C1=C/c1ccc(O)cc1"
result = "0.9 µM"

[[record]]
molecule = "CC1=NN(C(=O)c2ccc(Cl)cc2)C(=O)/C1=C/c1cccc([N+](=O)[O-])c1"
result = "> 270 µM"


Request: Which IC50 value belongs to O=C(NNC(=O)c1ccc2ccccc2c1)c1ccc(Cl)c(Cl)c1 ?
Result: > 100 µM

Request: Which IC50 is reported for this molecule? CC1=NN(C(=O)c2ccc(Cl)cc2)C(=O)/C1=C/c1ccc(Cl)cc1
Result: > 280 µM

Request: Returns the measured IC50 for the input molecule. Input: O=C(NN1C(=O)C(Cl)C1c1ccccc1Cl)c1ccccc1O (stereo unspecified)
Result: 94 µM

Request: Recorded IC50 of O=C(O)c1ccccc1C(=O)NNC(=O)c1ccccc1C(=O)O , please.
Result: > 100 µM

Request: Endpoint output: IC50 of COc1ccc(/C=C2/C(=O)N(C(=O)c3ccc(Cl)cc3)N=C2C)cc1OC . Value?
Result: > 260 µM

Request: Need IC50, item O=C(NNC(=O)c1ccccc1Br)c1ccccc1Br
Result: > 100 µM

====

Examples of compounds with documented pEC50 follow.
Test system: CCRF-CEM
Measurement description: Effective concentration was evaluated on HIV-1 infected CEM cells
Assay type: functional, cell-based
Condition set: Homo sapiens
pEC50: −log10 of the molar value.

[[record]]
smiles_structure = "Nc1ccccc1C(=O)NNC(=O)c1ccccc1N"
readout_type = "pEC50"
result = "< 3.70"


Shift focus to the following entry.
Request: // returns reported pEC50 for input CC1=NN(C(=O)c2ccc(Cl)cc2)C(=O)/C1=C/c1cccc([N+](=O)[O-])c1
Result: < 4.70

====

Study target: Human immunodeficiency virus type 1 integrase (Human immunodeficiency virus 1)
Measurement description: Inhibitory concentration was evaluated as 50% inhibition of HIV-1 integrase enzyme at strand transfer stage of DNA integration in experiment I
Readout type: IC50 (µM)
Quick note: give the figure in µM, leave out the unit.

[[record]]
compound = "O=C(NN1C(=O)C(Cl)C1c1cccc(O)c1)c1ccccc1O (configuration not stated)"
study_target = "Human immunodeficiency virus type 1 integrase (Human immunodeficiency virus 1)"
unit_string = "µM"
result = 236


Attention now turns to another entry.
Request: Could you tell me which IC50 is on file for O=C(NN1C(=O)C(Cl)C1c1ccc([N+](=O)[O-])cc1)c1ccccc1O (configuration not stated) ?
Result: 155

====

Study target: Human immunodeficiency virus type 1 integrase (Human immunodeficiency virus 1)
Measurement description: Inhibition of HIV-1 integrase enzyme at 3`- processing stage of DNA integration
IC50 overview

[[record]]
smiles_structure = "CC1=NN(C(=O)c2ccccc2O)C(=O)/C1=C/c1cccc([N+](=O)[O-])c1"
result = "1.4 µM"

[[record]]
smiles_structure = "CC1=NN(C(=O)c2ccc(Cl)cc2)C(=O)/C1=C/c1cccc(O)c1"
result = "> 293 µM"


Continue with the molecule presented below.
Request: Request the reported IC50 associated with COc1ccc(/C=C2/C(=O)N(C(=O)c3ccc(Cl)cc3)N=C2C)cc1OC
Result: > 260 µM

====

Measured pIC50, listed per entry.
Study target: Human immunodeficiency virus type 1 integrase (Human immunodeficiency virus 1)
Measurement description: Inhibition of HIV-1 integrase enzyme at 3`- processing stage of DNA integration
// scale note: pIC50 = -log10(conc_M); give the bare number

[[record]]
smiles_structure = "CC1=NN(C(=O)c2ccccc2O)C(=O)/C1=C/c1cccc(O)c1"
study_target = "Human immunodeficiency virus type 1 integrase (Human immunodeficiency virus 1)"
result = 6.05


Now take the following compound into account.
Request: What pIC50 value was documented for this compound, CC1=NN(C(=O)c2ccccc2O)C(=O)/C1=C/c1ccc(O)cc1 ?
Result: 6.22

====

Study target: Human immunodeficiency virus type 1 integrase (Human immunodeficiency virus 1)
Measurement description: Inhibitory concentration as 50% inhibition of HIV-1 integrase enzyme at strand transfer stage of DNA integration.
# IC50 per record follows
Lab book: enter the figure in µM, no units written.

Answered examples (2):
[[record]]
compound = "CC1=NN(C(=O)c2ccccc2O)C(=O)/C1=C/c1cccc(O)c1"
readout_type = "IC50"
result = 7.4

[[record]]
compound = "CC1=NN(C(=O)c2ccccc2O)C(=O)/C1=C/c1cccc([N+](=O)[O-])c1"
readout_type = "IC50"
result = 2.6


--- query ---
Request: Report IC50 for O=C(NN1C(=O)C(Cl)C1c1ccccc1O)c1ccccc1O (stereo not given) tested on Human immunodeficiency virus type 1 integrase (Human immunodeficiency virus 1).
Result: 264

====

Study target: Human immunodeficiency virus type 1 integrase (Human immunodeficiency virus 1)
Measurement description: Inhibition of HIV-1 integrase enzyme at 3`- processing stage of DNA integration
Readout type: IC50

[[record]]
compound = "CC1=NN(C(=O)c2ccccc2O)C(=O)/C1=C/c1ccc([N+](=O)[O-])cc1"
readout_type = "IC50"
result = "0.8 µM"

[[record]]
compound = "COc1ccc(C2C(Cl)C(=O)N2NC(=O)c2ccccc2O)cc1 (stereo not drawn)"
readout_type = "IC50"
result = "288 µM"


Request: Need IC50, item CC1=NN(C(=O)c2ccc(Cl)cc2)C(=O)/C1=C/c1ccc(Cl)cc1
Result: > 280 µM

====

Study target: Human immunodeficiency virus type 1 integrase (Human immunodeficiency virus 1)
Measurement description: Inhibitory concentration was evaluated as 50% inhibition of HIV-1 integrase enzyme at 3`- processing stage of DNA integration in experiment I
Readout type: IC50 (µM)
The reply should contain only the number, in µM.

[[record]]
compound = "O=C(NN1C(=O)C(Cl)C1c1ccc([N+](=O)[O-])cc1)c1ccccc1O (stereo unspecified)"
readout_type = "IC50"
result = 192


Request: What value of IC50 on Human immunodeficiency virus type 1 integrase (Human immunodeficiency virus 1) does COc1ccc(C2C(Cl)C(=O)N2NC(=O)c2ccccc2O)cc1OC (stereo unspecified) have?
Result: 125

Request: What measured IC50 is associated with O=C(NN1C(=O)C(Cl)C1c1ccccc1Cl)c1ccccc1O (stereo unspecified) on Human immunodeficiency virus type 1 integrase (Human immunodeficiency virus 1)?
Result: 241

Request: Identify the measured IC50 of COc1cc(C2C(Cl)C(=O)N2NC(=O)c2ccccc2O)cc(OC)c1OC (stereo unspecified) for Human immunodeficiency virus type 1 integrase (Human immunodeficiency virus 1).
Result: 68.8

Request: Request - read-out IC50 | tested on Human immunodeficiency virus type 1 integrase (Human immunodeficiency virus 1) | compound O=C(NN1C(=O)C(Cl)C1c1cccc(O)c1)c1ccccc1O (stereo unspecified)
Result: 180

Request: Item O=C(NN1C(=O)C(Cl)C1c1cccc(Cl)c1)c1ccccc1O (stereo unspecified) with Human immunodeficiency virus type 1 integrase (Human immunodeficiency virus 1) - IC50?
Result: 155

====

Study target: UniProt Q7ZJM1
Measurement description: Inhibitory concentration as 50% inhibition of HIV-1 integrase enzyme at strand transfer stage of DNA integration.
pIC50: −log10 of the molar value.
Here the recorded pIC50 is given for each entry.

[[record]]
compound = "O=C(NNC(=O)c1ccc(Cl)c(Cl)c1)c1ccccc1"
result = "< 4.00"

[[record]]
compound = "O=C(NNC(=O)c1ccc(Br)cc1)c1ccc(Br)cc1"
result = "< 4.00"

[[record]]
compound = "O=C(NNC(=O)c1cccc2ccccc12)c1ccccc1Br"
result = "< 4.00"

[[record]]
compound = "COc1cc(C2C(Cl)C(=O)N2NC(=O)c2ccccc2O)cc(OC)c1OC (stereo unspecified)"
result = 4.13

[[record]]
compound = "O=C(NNC(=O)c1ccccc1F)c1ccccc1F"
result = "< 4.00"

[[record]]
compound = "O=C(NNC(=O)c1cccc2ccccc12)c1ccccc1F"
result = "< 4.00"

[[record]]
compound = "COc1cc(/C=C2/C(=O)N(C(=O)c3ccccc3O)N=C2C)ccc1O"
result = 6.22

[[record]]
compound = "O=C(NN1C(=O)C(Cl)C1c1c(O)ccc2ccccc12)c1ccccc1O (stereo unspecified)"
result = 3.65


Request: Please give the measured pIC50 for this compound: Nc1ccccc1C(=O)NNC(=O)c1ccccc1N
Result: < 4.00

Request: pIC50 for COc1ccc(/C=C2/C(=O)N(C(=O)c3ccccc3O)N=C2C)cc1 ?
Result: 6.22

Request: Given the compound CC1=NN(C(=O)c2ccc(Cl)cc2)C(=O)/C1=C/c1ccccc1O , what is its reported pIC50?
Result: < 3.53
